Target: KRAS (G12D)::SOS1 (Homo sapiens (Human), UniProt P01116, G12D)
Sequence (P01116 other isoform, or with tags, fused parts or gaps G12D): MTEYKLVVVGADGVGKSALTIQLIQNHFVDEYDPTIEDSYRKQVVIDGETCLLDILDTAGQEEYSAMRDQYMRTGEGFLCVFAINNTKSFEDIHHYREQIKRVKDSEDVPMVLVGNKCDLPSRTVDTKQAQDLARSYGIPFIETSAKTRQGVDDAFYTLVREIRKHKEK
Assay: KRAS::SOS1 AlphaScreen binding assay, KRAS G12D
pIC50: −log10 of the molar value.
measured_quantity: pIC50

molecule	pIC50
C[C@H](Oc1cc(-n2ccc(C(=O)N[C@@H]3CCOC3)n2)nc(-c2onc3c2CCC[C@@]32CCCc3sc(N)c(C#N)c32)n1)[C@@H]1CCCN1C [I-56]	8.70
C[C@H](Oc1cc(-n2ccc(-c3cn([C@@H]4CCOC4)nn3)n2)nc(-c2noc3c2CCC[C@@]32CCCc3sc(N)c(C#N)c32)n1)[C@@H]1CCCN1C [II-211]	9.00
C[C@H](Oc1cc(C2=CCOCC2)nc(-c2noc3c2CCC[C@@]32CCCc3sc(N)c(C#N)c32)n1)[C@@H]1CCCN1C [II-67]	8.52
C[C@H](Oc1cc([C@@H]2CCN(C)C2)nc(-c2noc3c2CCC[C@@]32CCCc3sc(N)c(C#N)c32)n1)[C@@H]1CCCN1C [II-37]	9.00

(P) [2H]C([2H])([2H])N1C[C@H](F)C[C@H]1[C@H](C)Oc1cc(N2CCN(C([2H])([2H])[2H])C3(CC3)C2)nc(-c2noc3c2CCC[C@@]32CCCc3sc(N)c(C#N)c32)n1 [II-207]
(Q) C[C@H](Oc1cc(C2COCCO2)nc(-c2noc3c2CCC[C@@]32CCCc3sc(N)c(C#N)c32)n1)[C@@H]1CCCN1C (stereo partly drawn) [II-95]
Asked: Quick check, higher pIC50 between P and Q ? Use the label to indicate which entry you chose.
Given back: P
(P: 9.00, Q: 8.70)
